Values were extracted from ChEMBL document CHEMBL1131743.

# assay-name: Antagonist activity against rat 1A/2C subtype of N-methyl-D-aspartate (NMDA) receptor was determined by electrical assay in xenopus oocytes.
# Format: functional, cell-based
# measurement-context: Oocyte
property-name: pIC50
Bear in mind: pIC50 is minus log10 of a mol/L concentration; give just that figure.

Completed entries (count: 3):
{"columns": ["structure-string", "pIC50"],
 "data": [
  ["c1ccc(CCCCN2CCc3c([nH]c4ccccc34)C2)cc1", 4.19],
  ["Oc1ccc(CCCCN2CCc3c([nH]c4ccccc34)C2)cc1", 3.82],
  ["Oc1ccc2c3c([nH]c2c1)CN(CCCCc1ccccc1)CC3", 4.17]
]}

Read the entry `Oc1ccc(CCN2CCc3c([nH]c4ccccc34)C2)cc1` and write its reported pIC50. 3.85

Read the entry `Oc1ccc(CCCN2CCc3c([nH]c4ccccc34)C2)cc1` and write its reported pIC50. 3.77

Read the entry `COc1ccc2[nH]c3c(c2c1)CCN(CCCCc1ccccc1)C3` and write its reported pIC50. 3.88

Read the entry `Oc1ccc2[nH]c3c(c2c1)CCN(CCCCc1ccccc1)C3` and write its reported pIC50. 3.74
